Assay: Pharmacokinetics in ICR mice
Assay type: in vivo
Settings: ICR, mouse, blood; IV, 30 mg/kg, 24 h, mice; read-out: Blood drug concentration
Measured Attribute: concentration at 24 h (ng/mL)
Please give a number only; it is taken to be in ng/mL.

// COc1cc2c(cc1Nc1nc(Nc3ccccc3S(=O)(=O)C(C)C)c3[nH]ccc3n1)N(C(=O)CN(C)C)CC2 : concentration at 24 h value = 17.9

* * *

Assay: Pharmacokinetics in ICR mice;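 further: drug levels in collected samples measured by LC-MS/MS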
Format: in vivo
Conditions: mouse, plasma; IV, 30 mg/kg, ICR mice
Measured Attribute: AUC(0-t) (ng·h/mL)
Please give a number only; it is taken to be in ng·h/mL.

// COc1cc2c(cc1Nc1nc(Nc3ccccc3S(=O)(=O)C(C)C)c3[nH]ccc3n1)N(C(=O)CN(C)C)CC2 : AUC(0-t) value = 13100

Source listed as paper PMC8749467.
